# Assayed Target: Dual specificity calcium/calmodulin-dependent 3',5'-cyclic nucleotide phosphodiesterase 1C (Human)
# Sequence (Q14123 whole entry): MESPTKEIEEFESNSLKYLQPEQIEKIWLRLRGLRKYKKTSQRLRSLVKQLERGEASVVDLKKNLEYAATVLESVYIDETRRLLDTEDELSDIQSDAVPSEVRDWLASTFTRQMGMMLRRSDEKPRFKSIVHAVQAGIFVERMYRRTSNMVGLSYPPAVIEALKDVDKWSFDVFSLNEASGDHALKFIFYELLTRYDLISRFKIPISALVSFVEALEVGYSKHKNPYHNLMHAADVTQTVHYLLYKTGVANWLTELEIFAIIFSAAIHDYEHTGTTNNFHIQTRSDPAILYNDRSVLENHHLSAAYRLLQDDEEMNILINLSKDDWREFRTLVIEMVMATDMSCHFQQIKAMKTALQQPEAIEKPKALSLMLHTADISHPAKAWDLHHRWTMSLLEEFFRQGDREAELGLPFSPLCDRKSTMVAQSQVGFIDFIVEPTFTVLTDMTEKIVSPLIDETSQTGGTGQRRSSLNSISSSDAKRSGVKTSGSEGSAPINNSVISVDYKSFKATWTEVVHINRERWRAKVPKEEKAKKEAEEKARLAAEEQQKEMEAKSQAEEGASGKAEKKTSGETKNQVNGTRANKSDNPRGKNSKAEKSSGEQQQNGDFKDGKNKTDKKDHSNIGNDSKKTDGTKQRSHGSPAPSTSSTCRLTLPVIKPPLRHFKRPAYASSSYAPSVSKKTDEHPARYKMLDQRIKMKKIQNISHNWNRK
# Assay: Inhibition Assay
pIC50: −log10 of the molar value.
Readout Name: pIC50

# Compound, Endpoint Result
measured = [
    ("COc1ccccc1/C=C/C(NCc1cnn(C)c1)=C1\\CC(C)=NN1C(C)C [US11026923, Example 63]", 7.70),
    ("COc1ncccc1/C=C/C(NCc1cnn(C)c1)=C1\\CC(C)=NN1C(C)C [US11026923, Example 62]", 7.68),
    ("CC1=NN(C(C)C)/C(=C(/C=C/c2cnn(C)c2C)NCc2cnn(C)c2)C1 [US11026923, Example 66]", 6.66),
    ("CC1=NN(C(C)C)/C(=C(/C=C/c2cn(C)nc2C)NCc2cnn(C)c2)C1 [US11026923, Example 61]", 6.17),
    ("CC1=NN(C(C)C)/C(=C(/C=C/c2ccccc2)NCc2cnn(C)c2)C1 [US11026923, Example 64]", 7.33),
]

###

Parameter pIC50: see the listing below.
# Assayed Target: Dual specificity calcium/calmodulin-dependent 3',5'-cyclic nucleotide phosphodiesterase 1B (Homo sapiens, UniProt Q01064)
# Sequence (Q01064 whole entry): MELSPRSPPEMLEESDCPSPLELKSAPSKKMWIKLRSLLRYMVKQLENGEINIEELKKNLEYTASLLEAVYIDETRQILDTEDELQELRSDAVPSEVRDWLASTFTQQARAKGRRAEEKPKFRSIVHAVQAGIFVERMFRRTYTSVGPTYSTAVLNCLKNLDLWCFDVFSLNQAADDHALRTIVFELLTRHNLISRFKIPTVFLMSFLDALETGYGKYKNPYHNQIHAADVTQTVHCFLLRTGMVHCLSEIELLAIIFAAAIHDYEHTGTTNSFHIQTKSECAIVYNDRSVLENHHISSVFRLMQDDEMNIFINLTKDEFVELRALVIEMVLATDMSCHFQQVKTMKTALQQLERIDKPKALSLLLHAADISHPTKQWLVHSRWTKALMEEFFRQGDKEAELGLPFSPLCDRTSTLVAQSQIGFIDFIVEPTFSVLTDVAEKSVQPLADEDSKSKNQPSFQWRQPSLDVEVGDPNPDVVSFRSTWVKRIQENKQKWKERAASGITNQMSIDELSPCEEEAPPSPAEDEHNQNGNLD
# Assay: Inhibition Assay
pIC50: −log10 of the molar value.

# Compound, pIC50
measured = [
    ("COc1ccccc1/C=C/C(NCc1cnn(C)c1)=C1\\CC(C)=NN1C(C)C [US11026923, Example 63]", 8.03),
    ("COc1ncccc1/C=C/C(NCc1cnn(C)c1)=C1\\CC(C)=NN1C(C)C [US11026923, Example 62]", 8.62),
    ("CC1=NN(C(C)C)/C(=C(/C=C/c2ccccc2)NCc2cnn(C)c2)C1 [US11026923, Example 64]", 7.92),
    ("CC1=NN(C(C)C)/C(=C(/C=C/c2ccsc2C)NCc2cnn(C)c2)C1 [US11026923, Example 65]", 8.92),
    ("CC1=NN(C(C)C)/C(=C(/C=C/c2cnn(C)c2C)NCc2cnn(C)c2)C1 [US11026923, Example 66]", 7.23),
    ("CC1=NN(C(C)C)/C(=C(/C=C/c2cn(C)nc2C)NCc2cnn(C)c2)C1 [US11026923, Example 61]", 6.92),
]
